biological target: Albumin (Bos taurus); assay: compounds binding labelled BSA control protein – biochemical, small-molecule microarray, Alexa647 label, 635/667 nm fluorescence, artefact control for SMM control protein annotation, profiling panel (AID 1118); details: BSA-A647 binding, fluorescence 635 nm, higher = more signal;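 note: score merges 667 nm emission intensity and signal-to-noise per printed compound spot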
Assign class by composite z-score: not lower than 0.6 means yes; lower than 0.6 means no.

1. [N-]=[N+]=Nc1ccccc1[C@H]1OC(c2ccc(OCCCO)cc2)=N[C@@]1(CCS(=O)(=O)c1ccccc1)C(=O)NCc1ccccc1 = no
2. O=C1OCCC/C=C\[C@H]2OC34C=CCN(c5ccc6ccccc6c5)C(=O)[C@H]3N(CCCCCO)C(=O)[C@@H]4C12 (stereo partly specified) = no
3. CCOC(=O)C1=CC[C@@H](c2ccc(C(F)(F)F)cc2)N(S(=O)(=O)c2ccc(C)cc2)[C@H]1c1ccccc1 = yes
4. CCOc1cc(C(O)C2C=CC3C(=O)N(c4ccccc4)C(=O)C3N2Nc2ccc(C(C)C)cc2)ccc1O (stereo unspecified) = yes
5. CCOC(=O)C[C@H]1[C@H](OC(=O)c2ccc(-c3ccccc3)cc2)[C@@H](NC(=O)c2ccccc2)c2cc(OCCCO)ccc2N1C(=O)c1ccc2ccccc2n1 = yes
6. COc1ccc([Si](C)(C)[C@@H]2[C@@H](CCn3cc(CCO)nn3)O[C@]3(C(=O)N(Cc4cccc(N5C(=O)c6cccc7cccc5c67)c4)c4ccccc43)[C@H]2C)cc1 = yes
7. O=c1cccc(-c2ccccc2Cl)o1 = no
8. CCOC(=O)C[C@H]1[C@H](OC(=O)c2ccc(-c3ccccc3)cc2)[C@@H](NC(=O)c2ccccc2)c2cc(OCCCO)ccc2N1C(=O)Cc1ccc(OC)cc1 = no
9. COC(=O)c1c(CC[C@@H](CO)NC(=O)N[C@H](Cc2ccccc2)Cn2cc(-c3ccccn3)nn2)oc(C(C)=O)c1C(=O)OC = yes
10. COc1ccc([Si](C)(C)[C@@H]2[C@@H](CC(=O)N3CCC[C@H]3CO)O[C@]3(C(=O)N(Cc4cccc(I)c4)c4ccccc43)[C@H]2C)cc1 = no
11. CC(C)CCC[C@@H](C)[C@H]1CC[C@@]2(C)C3=C(CC[C@]12C)[C@@]1(C)CC[C@H](OC(=O)c2ccc(C(F)(F)F)nc2)C(C)(C)C1CC3 (stereo partly specified) = no
12. CC#CC(=O)Oc1ccc(Br)cc1C=CC(=O)OCC = no
13. O=C(NCc1ccccc1)[C@@H]1c2ccccc2C(=O)N(C2Cc3ccccc3C2)[C@H]1c1ccc(CO)cc1 = no
14. NCCCCCNC(=O)[C@H]1C[C@H]2C(=O)N3CCC[C@H]3C(=O)N2[C@H]1c1ccc(O)cc1 = yes
15. Cc1c(NC(=O)/C(C#N)=C/c2cccc([N+](=O)[O-])c2)c(=O)n(-c2ccccc2)n1C = no
16. O=C1NC(=O)C2C1C=CC(C(O)C1CC=CCC1)N2Nc1ccccn1 (stereo unspecified) = no
17. C=CCN1Cc2ccccc2[C@@H]2OC(c3ccc(OCCCO)cc3)=N[C@]2(CCS(=O)(=O)c2ccccc2)C1=O = no
18. OB1C=CCC(CCc2ccccc2)O1 (stereo unspecified) = no
19. COCC(=C=CC[C@H](O)c1cccc(OCCO)c1)CCO = yes
20. COc1ccc(C(O)C2C=CC3C(=O)N(C)C(=O)C3N2N(c2ccccc2)c2ccccc2)c2ccccc12 (stereo unspecified) = no
21. CS(=O)(=O)CCOC(=O)C1=CC(CCCO)=CC(C2CC2)N(Cc2cc3c(cc2Br)OCO3)C=C1C(=O)OCCS(C)(=O)=O (stereo unspecified) = yes
22. CC(C)(C)OC(=O)CC[C@]1(C(N)=O)N=C(c2ccc(OCCCO)cc2)O[C@H]1c1ccccc1 = yes
23. C=C(CCCC)/C(=C/C[C@H](OC(C)=O)c1ccccc1OCCO)c1cnc2ccccc2c1 = no
24. CCCCCCc1nc(-c2ccc(-c3ccc(Cl)c(Cl)c3)o2)cc2c1[Si](C(C)C)(C(C)C)O[C@H]2c1ccccc1 = no
25. COC(=O)C[C@H]1O[C@@H](CCc2ccccc2)[C@@H](C)[C@@H]1[Si](C)(C)c1ccc(OC)cc1 = no
26. COC(=O)C(CC#Cc1ccc2c(c1)[C@]1(C(=O)N2)[C@H](c2ccccc2OCCO)N2[C@H](c3ccccc3)[C@H](c3ccccc3)OC(=O)[C@H]2[C@@H]1C(N)=O)C(=O)OC = no
27. C=CC[C@]1(C(N)=O)COC(c2ccc(OCCCO)cc2)=N1 = no
28. CC(C)NC(=O)[C@@]1(Cc2ccccc2I)c2ccccc2C(=O)N(Cc2ccccc2Cl)[C@H]1c1ccc(CO)cc1 = no
29. COCCOC(=O)N1C(=O)[C@@]2(c3cc(C#CC4=CCCCC4)ccc31)[C@H](C(N)=O)[C@H]1C(=O)O[C@H](c3ccccc3)[C@H](c3ccccc3)N1[C@@H]2c1ccc(O)cc1 = yes
30. O=C1NC(=O)C2C1C=CC(C(O)c1ccc(-c3ccccc3)s1)N2Nc1ccc(Cl)cc1Cl (stereo unspecified) = yes
31. CC(C)OC(=O)C=C1C[C@@H](c2cccc(Cl)c2)O[C@@H](c2cccc(Cl)c2)O1 = no

###

molecular target: Fibroblast growth factor 10 (Homo sapiens); test: compounds binding fibroblast growth factor 10 – biochemical, small-molecule microarray, 635 nm fluorescence, primary screen (AID 1102); conditions: FGF10 binding, fluorescence 635 nm, higher = more signal
experimentalEndpoint: composite z-score

1) CCOC(=O)[C@H]1C/C=C/C[C@H](C(=O)OCC)C(=O)O[C@H]2[C@@H](OC)O[C@H](CO)[C@@H](OC(=O)c3ccc(Br)cc3)[C@@H]2OC1=O = 0.88
2) CCCC[C@@H]1C[C@H]1[C@@H](NC(=O)c1cccnc1)c1ccc(Cl)cc1 = -2.18
3) O=C1NC(=O)C2C1C=CC(C(O)c1ccc(I)cc1)N2Nc1ccccn1 (stereo not given) = -0.0548
4) C=CC[C@@]1(C(=O)N2CCCCC2)N=C(c2ccc(OCCCO)cc2)O[C@@H]1c1ccccc1N=[N+]=[N-] = 0.925
5) COc1ccc(C(O)C2C=CC3C(=O)N(C)C(=O)C3N2NC(=O)OC(C)(C)C)c2ccccc12 (stereo not given) = 1.16
6) C=CCOC(=O)[C@H]1[C@@H]2C(=O)O[C@@H](c3ccccc3)[C@@H](c3ccccc3)N2[C@@H](c2ccc(OCCOC(=O)[C@@H]3C[C@@H]4C(=O)N5CCC[C@H]5C(=O)N4[C@@H]3c3cccc(OCCO)c3)cc2)[C@]12C(=O)Nc1ccc(I)cc12 = 1.42
7) CCCCCCc1nc(-c2ccc(-c3ccc(Cl)c(Cl)c3)o2)c(C)c2c1[Si](C(C)C)(C(C)C)OC2 = -0.57
8) O=C(O)[C@H]1C[C@H]2C(=O)N3CCC[C@H]3C(=O)N2[C@H]1c1ccc(O)cc1 = -1.41
9) O=C1O[C@H](c2ccccc2)[C@H](c2ccccc2)N2[C@H]1[C@@H](C(=O)NC[C@H](O)c1ccccc1)[C@]1(C(=O)Nc3ccc(C#CC4=CCCCC4)cc31)[C@H]2c1ccccc1OCCO = 0.439
10) COC(=O)[C@H](Cc1ccccc1)N[C@H](/C=C/C1CC1)[C@@H](O)Cc1ccccc1 = -0.66
11) CCCCCCc1nc(-c2ccc(-c3ccc(Cl)c(Cl)c3)o2)cc2c1[Si](C(C)C)(C(C)C)O[C@H]2c1ccccc1 = -0.515
12) CC1CC/C=C\[C@H]2OC34C=CCN(Cc5ccccc5)C(=O)[C@H]3N(C(C)CO)C(=O)[C@@H]4C2C(=O)O1 (stereo not given in full) = 0.0204
13) CC=CC(O)C1C=CC2C(=O)N(C)C(=O)C2N1N(c1ccccc1)c1ccccc1 (stereo not given) = 0.128
14) CC1CC/C=C\[C@H]2OC34C=CCN(Cn5nnc6ccccc65)C(=O)[C@H]3N(CCCCCO)C(=O)[C@@H]4C2C(=O)O1 (stereo not given in full) = -1.26
15) OB1C=CCC(CCc2ccccc2)O1 (stereo not given) = -0.184

###

assay: compound effects on multiple myeloma cell viability – MM1S, calcein-AM fluorescence, 48 h, basal, profiling panel (AID 1165); conditions: higher = more signal; note: test concentration not given here
Please mark Condition met if the recorded z-score is equal to or greater than -0.7, and Condition not met if it falls below.

1. [N-]=[N+]=NCc1ccccc1[C@@H]1OC(c2ccc(OCCCO)cc2)=N[C@]1(CCS(=O)(=O)c1ccccc1)C(N)=O = Condition met
2. C=C(CCCC)/C(=C/C[C@H](OC(C)=O)c1ccc(OCCO)cc1)c1cnc2ccccc2c1 = Condition not met
3. CC1CC/C=C\[C@H]2OC34C=CCN(Cc5ccccc5)C(=O)[C@H]3N(C(C)CO)C(=O)[C@@H]4C2C(=O)O1 (stereo not given in full) = Condition met
4. CN1C(=O)C2C=CC(C(O)C=Cc3ccc([N+](=O)[O-])cc3)N(Nc3ccccc3)C2C1=O (stereo not given) = Condition met
5. C=CCC(OC(C)=O)[C@@H]1[C@@H](N(Cc2ccc(-c3cccc(C(F)(F)F)c3)o2)C(=O)Cc2ccc(OC)cc2)c2cc(OCCCO)ccc2N1C(=O)c1ccc2ccccc2c1 (stereo not given in full) = Condition met
6. Cc1ccc(C2C3C(=O)CC4C(=O)N(c5ccccc5)C(=O)C4C3CN2S(=O)(=O)c2ccc(C)cc2)cc1 (stereo not given) = Condition met
7. C=C(CCCC)/C(=C/C[C@H](OC(C)=O)c1ccccc1OCCO)c1cnc2ccccc2c1 = Condition not met
8. COCCOC(=O)N1C(=O)[C@@]2(c3ccccc31)[C@H](c1ccc(OCCO)cc1)N1[C@H](c3ccccc3)[C@H](c3ccccc3)OC(=O)[C@H]1[C@@H]2C(=O)N1CCc2cc(OC)c(OC)cc2C1 = Condition met
9. CN(C)CCCCCCNC(=O)[C@@H]1C[C@@H]2C(=O)N[C@@H](CCCC[N+](C)(C)C)C(=O)N2[C@@H]1c1ccc(O)cc1 = Condition not met
10. C=CCN1Cc2ccccc2[C@@H]2OC(c3ccc(OCCCO)cc3)=N[C@]2(CCS(=O)(=O)c2ccccc2)C1=O = Condition not met
11. C=CC[C@]12N=C(c3ccc(OCCCO)cc3)O[C@H]1c1ccccc1N(CCS(=O)(=O)c1ccccc1)C2=O = Condition not met
12. COc1cc(CO)cc(I)c1O[C@H]1C=C(C(=O)NCCO)C[C@@H](NC[C@@H]2CCCO2)[C@@H]1O = Condition met
13. COCCCNC(=O)[C@@H]1c2ccccc2C(=O)N(Cc2ccccc2)[C@H]1c1ccc(CO)cc1 = Condition met
14. COc1ccc([Si](C)(C)[C@@H]2[C@@H](CCn3cc([C@H](O)c4ccccc4)nn3)O[C@]3(C(=O)N(Cc4cccc(N5CCC5=O)c4)c4ccccc43)[C@H]2C)cc1 = Condition met
15. COCCCNC(=O)[C@@]1(Sc2ccc(C)cc2)CC(=O)N(Cc2ccccc2Cl)[C@@H]1c1ccc(CO)cc1 = Condition met
